System: HOP-62 NSCLC
EXPERIMENT NOTES: NCI tumour cell line growth inhibition, 48 h
So I've got a bunch of compounds here, and I need their TGI values.

TGI value, target or system HOP-62 NSCLC, for "C(/Cc1ccc2c(c1)OCO2)=N\NC1=NCCCN1" : > 100 µM

TGI value, target or system HOP-62 NSCLC, for "CCN(CC)c1ccc2cc(-c3nc4ccccc4c(=O)[nH]3)c(=N)oc2c1" : > 100 µM

TGI value, target or system HOP-62 NSCLC, for "N#Cc1nc(C#N)n(C(=O)c2ccccc2)c1NC(=O)c1ccccc1" : > 100 µM

TGI value, target or system HOP-62 NSCLC, for CC(C)(C)C1CC[C@H](O)[C@H]([C@H](O)CC2CC(=O)N(c3ccccc3)C(=O)C2)C1 (stereo not given in full) : > 100 µM

TGI value, target or system HOP-62 NSCLC, for "O=C1c2ccccc2-c2[nH]c3cn[nH]c(=O)c3c21" : > 100 µM

TGI value, target or system HOP-62 NSCLC, for "COc1cc2c(c(OC)c1OC)-c1ccc(SC)c(=O)cc1[C@@H](NC(=O)c1ccc(Cl)cc1)CC2" : 2.03 µM

TGI value, target or system HOP-62 NSCLC, for Cc1ccccc1OC(C)C(=O)NN1C(=O)CC(=O)N(c2ccccc2)C1=S (stereo not given) : > 100 µM

TGI value, target or system HOP-62 NSCLC, for "COc1c(C)c(C/C=C(\C)CC/C=C(\C)CCC=C(C)C)c(OC)c(OC)c1OC" : > 100 µM

TGI value, target or system HOP-62 NSCLC, for COc1ccc(C(O)CC(O)(C(F)(F)F)C(F)(F)F)cc1 (stereo not given) : > 100 µM

TGI value, target or system HOP-62 NSCLC, for "C=[CH][Sn]([CH]=C)([O]c1cccc2cccnc12)[O]c1cccc2cccnc12" : 32.8 µM
